# Run description: Metabolite analysis in plasma, liver, and kidney (TLC)
# Type: in vivo, Crl:CD1(ICR) mice
# Test conditions: female, Crl:CD1(ICR), mouse, in vivo, 1 mg/kg, Female; 2 h after [^14C]Epyrifenacil 1 mg/kg p.o.; read-out: Metabolite concentration, Liver
Recorded endpoint: concentration at 2 h (ng/g)
Answers are plain numbers, in ng/g.

The compound identified as CN1C(=O)N(c2cc(Oc3cccnc3OCC(=O)O)c(Cl)cc2F)C(=O)CC1(O)C(F)(F)F (stereo not shown) registered its concentration at 2 h at 858

* * *

# Run description: Metabolite analysis in plasma, liver, and kidney (TLC)
# Assay type: in vivo, Crl:CD1(ICR) mice
# Test conditions: male, Crl:CD1(ICR), mouse, liver and plasma, oral, males; 2 h; DGX co‐administrated (oral or intraperitoneal); read-out: Liver/plasma ratio of S‐3100‐CA
Recorded endpoint: Kp at 2 h

The reported value for `Cn1c(C(F)(F)F)cc(=O)n(-c2cc(Oc3cccnc3OCC(=O)O)c(Cl)cc2F)c1=O` in terms of Kp at 2 h is 89 to 139

* * *

# Run description: Metabolite analysis in plasma, liver, and kidney (TLC)
# Format: in vivo, Crl:CD1(ICR) mice
# Test conditions: Crl:CD1(ICR), mouse, liver, oral; Male; 2 h after [^14C]Epyrifenacil 1 mg/kg p.o.; read-out: Metabolite concentration, Liver
Recorded endpoint: concentration at 2 h (ng/g)
One number for each entry, in ng/g.

// solved cases for concentration at 2 h follow
>>> print(df.to_string())
                           structure_smiles     recorded_endpoint  quantitative_result
0  Cn1c(C(F)(F)F)cc(=O)n(-c2cc(Oc3cccnc3OCC(=O)O)c(Cl)cc2F)c1=O  concentration at 2 h                 4740
1  Cn1c(C(F)(F)F)cc(=O)n(-c2cc(Oc3ccc[nH]c3=O)c(Cl)cc2F)c1=O  concentration at 2 h                   12

What the record says about `CNC(=O)Nc1cc(Oc2cccnc2OCC(=O)O)c(Cl)cc1F` : concentration at 2 h is 24

* * *

# Run description: Metabolite analysis in plasma, liver, and kidney (TLC)
# Type: in vivo, Crl:CD1(ICR) mice
# Test conditions: male, Crl:CD1(ICR), mouse, in vivo, Male; 2 h after [^14C]Epyrifenacil 1 mg/kg p.o. + Digoxin 200 mg/kg p.o.; read-out: Metabolite concentration, Liver
Recorded endpoint: concentration at 2 h (ng/g)
Answers are plain numbers, in ng/g.

Measured concentration at 2 h, CN1C(=O)N(c2cc(Oc3cccnc3OCC(=O)O)c(Cl)cc2F)C(=O)CC1(O)C(F)(F)F (stereo not shown) : 157

* * *

# Run description: Metabolite analysis in plasma, liver, and kidney (TLC)
# Format: in vivo, Crl:CD1(ICR) mice
# Test conditions: male, Crl:CD1(ICR), mouse, in vivo, Male; 2 h after [^14C]Epyrifenacil 1 mg/kg p.o. + Digoxin 200 mg/kg p.o.; read-out: Metabolite concentration, Kidney
Recorded endpoint: concentration at 2 h (ng/g)
Give bare numbers, in ng/g.

Looking up CN1C(=O)N(c2cc(Oc3cccnc3OCC(=O)O)c(Cl)cc2F)C(=O)CC1(O)C(F)(F)F (stereo not shown) , I found its concentration at 2 h recorded as 5

* * *

# Run description: Metabolite analysis in plasma, liver, and kidney (TLC)
# Type: in vivo, Crl:CD1(ICR) mice
# Test conditions: male, Crl:CD1(ICR), mouse, liver and plasma, oral, 1 mg/kg, males; 2 h; epyrifenacil 1 mg/kg p.o. without inhibitors; read-out: Liver/plasma ratio of S‐3100‐CA
# Excerpt: Precoated silica gel 60 F254 chromatoplate (20 × 20 cm, 0.25‐ or 0.5‐mm layer thickness, Merck KGaA) was used for two‐dimensional thin layer chromatography (2D‐TLC) analysis. The solvent systems were ethyl formate/formic acid (95/5, v/v) for the first dimension, and ethyl acetate/acetic acid (95/5, v/v) for the second dimension. The radioactivity on the TLC plates was detected by autoradiography using an imaging plate processed with a fluoro‐image analyzer (FLA‐9500, GE Healthcare). […]
Recorded endpoint: Kp at 2 h
Answers are plain numbers.

compound `Cn1c(C(F)(F)F)cc(=O)n(-c2cc(Oc3cccnc3OCC(=O)O)c(Cl)cc2F)c1=O` , Kp at 2 h observed: 88

* * *

# Run description: Metabolite analysis in plasma, liver, and kidney (TLC)
# Type: in vivo, Crl:CD1(ICR) mice
# Test conditions: female, Crl:CD1(ICR), mouse, in vivo, Female; 2 h after [^14C]Epyrifenacil 1 mg/kg p.o. + Rifampicin 200 mg/kg p.o.; read-out: Metabolite concentration, Plasma
Recorded endpoint: concentration at 2 h
Please make sure the unit comes right after the number.

Input CN1C(=O)N(c2cc(Oc3cccnc3OCC(=O)O)c(Cl)cc2F)C(=O)CC1(O)C(F)(F)F (stereo not shown) . Output concentration at 2 h: 22 ng/g

* * *

# Run description: Metabolite analysis in plasma, liver, and kidney (TLC)
# Type: in vivo, Crl:CD1(ICR) mice
# Test conditions: male, Crl:CD1(ICR), mouse, in vivo, 1 mg/kg, Male; 2 h after [^14C]Epyrifenacil 1 mg/kg p.o.; pooled samples; read-out: Metabolite concentration, Plasma
Recorded endpoint: concentration at 2 h (ng/g)
One number for each entry, in ng/g.

Per the record, CN1C(=O)N(c2cc(Oc3cccnc3OCC(=O)O)c(Cl)cc2F)C(=O)CC1(O)C(F)(F)F (stereo not shown) has concentration at 2 h of 3

* * *

# Run description: Metabolite analysis in plasma, liver, and kidney (TLC)
# Type: in vivo, Crl:CD1(ICR) mice
# Test conditions: female, Crl:CD1(ICR), mouse, liver and plasma, oral, 1 mg/kg, females; 2 h; epyrifenacil 1 mg/kg p.o. without inhibitors; read-out: Liver/plasma ratio of S‐3100‐CA
Recorded endpoint: Kp at 2 h
Give bare numbers.

The molecule listed as `Cn1c(C(F)(F)F)cc(=O)n(-c2cc(Oc3cccnc3OCC(=O)O)c(Cl)cc2F)c1=O` shows Kp at 2 h equal to 52

* * *

# Run description: Metabolite analysis in plasma, liver, and kidney (TLC)
# Type: in vivo, Crl:CD1(ICR) mice
# Test conditions: female, Crl:CD1(ICR), mouse, in vivo, Female; 2 h after [^14C]Epyrifenacil 1 mg/kg p.o. + Digoxin 100 mg/kg i.p.; read-out: Metabolite concentration, Liver
Recorded endpoint: concentration at 2 h (ng/g)
Numbers only, in ng/g.

Consider CN1C(=O)N(c2cc(Oc3cccnc3OCC(=O)O)c(Cl)cc2F)C(=O)CC1(O)C(F)(F)F (stereo not shown) . Its measured concentration at 2 h is 553

* * *

# Run description: Metabolite analysis in plasma, liver, and kidney (TLC)
# Type: in vivo, Crl:CD1(ICR) mice
# Test conditions: male, Crl:CD1(ICR), mouse, in vivo, 1 mg/kg, Male; 2 h after [^14C]Epyrifenacil 1 mg/kg p.o.; read-out: Metabolite concentration, Liver
Recorded endpoint: concentration at 2 h (ng/g)
Give bare numbers, in ng/g.

concentration at 2 h reading for CN1C(=O)N(c2cc(Oc3cccnc3OCC(=O)O)c(Cl)cc2F)C(=O)CC1(O)C(F)(F)F (stereo not shown) : 1030

* * *

# Run description: Metabolite analysis in plasma, liver, and kidney (TLC)
# Format: in vivo, Crl:CD1(ICR) mice
# Test conditions: Crl:CD1(ICR), mouse, plasma, oral, with rifampicin (OATP inhibitor) 200 mg/kg p.o.; Female; 2 h after [^14C]Epyrifenacil 1 mg/kg p.o. + Rifampicin 200 mg/kg p.o.; read-out: Metabolite concentration, Plasma
Recorded endpoint: concentration at 2 h (ng/g)
Give bare numbers, in ng/g.

>>> df
                                   compound  quantitative_result
0  CNC(=O)Nc1cc(Oc2cccnc2OCC(=O)O)c(Cl)cc1F [M2]                   16

Now consider the entry below.
So, Cn1c(C(F)(F)F)cc(=O)n(-c2cc(Oc3cccnc3OCC(=O)O)c(Cl)cc2F)c1=O [S‐3100‐CA] ? Its concentration at 2 h was 143

* * *

# Run description: Metabolite analysis in plasma, liver, and kidney (TLC)
# Format: in vivo, Crl:CD1(ICR) mice
# Test conditions: female, Crl:CD1(ICR), mouse, liver and plasma, oral, females; 2 h; RIF co‐administrated; read-out: Liver/plasma ratio of S‐3100‐CA
Recorded endpoint: Kp at 2 h

Short answer for `Cn1c(C(F)(F)F)cc(=O)n(-c2cc(Oc3cccnc3OCC(=O)O)c(Cl)cc2F)c1=O` : Kp at 2 h was 5

* * *

# Run description: Metabolite analysis in plasma, liver, and kidney (TLC)
# Format: in vivo, Crl:CD1(ICR) mice
# Test conditions: female, Crl:CD1(ICR), mouse, in vivo, Female; 2 h after [^14C]Epyrifenacil 1 mg/kg p.o. + Rifampicin 200 mg/kg p.o.; read-out: Metabolite concentration, Liver
Recorded endpoint: concentration at 2 h (ng/g)
Answers are plain numbers, in ng/g.

Quick note, concentration at 2 h for CN1C(=O)N(c2cc(Oc3cccnc3OCC(=O)O)c(Cl)cc2F)C(=O)CC1(O)C(F)(F)F (stereo not shown) landed at 129
